molecular target: human GCG receptor (human, UniProt P47871 26-477); assay: cell-based or functional assay
Sequence (P47871 26-477): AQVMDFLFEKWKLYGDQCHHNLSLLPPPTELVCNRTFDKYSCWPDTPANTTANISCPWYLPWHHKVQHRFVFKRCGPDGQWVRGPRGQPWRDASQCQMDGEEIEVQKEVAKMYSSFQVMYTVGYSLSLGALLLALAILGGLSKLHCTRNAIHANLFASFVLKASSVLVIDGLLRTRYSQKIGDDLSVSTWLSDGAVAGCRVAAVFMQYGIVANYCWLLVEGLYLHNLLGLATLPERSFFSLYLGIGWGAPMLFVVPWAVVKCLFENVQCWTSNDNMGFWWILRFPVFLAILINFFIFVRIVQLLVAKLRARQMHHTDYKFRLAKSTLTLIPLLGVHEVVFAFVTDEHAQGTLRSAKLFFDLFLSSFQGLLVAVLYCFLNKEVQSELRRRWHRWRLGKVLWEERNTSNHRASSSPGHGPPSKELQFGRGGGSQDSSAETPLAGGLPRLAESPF
Bridge positions count the residues as written; N and C are the ends. Square brackets hold non-standard residues; d marks the D form. Ends that are not written are not given here. * marks the point of attachment. Acetyl(2-(4-imidazolyl)) = O=C(Cc1c[nH]cn1)*; Aib = CC(C)(N)C(=O)O
Observable: In vitro activity compared to native-type peptide (%), vs Glucagon

Y[Aib]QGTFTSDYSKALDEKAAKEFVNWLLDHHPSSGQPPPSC (bridge 16-20) [triple agonist of SEQ ID NO: 98] = 8.2%

-- ask Can you share its In vitro activity compared to native-type peptide (%), vs Glucagon? I mean this binder: H[Aib]QGTFTSDVSSYLLGQQQKEFIAWLVKGC [triple agonist of SEQ ID NO: 4]
-- reply < 0.1%

-- ask What does the data say about its In vitro activity compared to native-type peptide (%), vs Glucagon? Entry: Y[Aib]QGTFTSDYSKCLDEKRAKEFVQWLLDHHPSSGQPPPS (bridge 16-20) [triple agonist of SEQ ID NO: 22]
-- reply 140%

-- ask Consider the binder H[Aib]QGTFTSDKSKYLDERACQDFVQWLLDGGPSSGAPPPS [triple agonist of SEQ ID NO: 40] and give its measured In vitro activity compared to native-type peptide (%), vs Glucagon.
-- reply < 0.1%

-- ask Recorded In vitro activity compared to native-type peptide (%), vs Glucagon for {Acetyl(2-(4-imidazolyl))}-[Aib]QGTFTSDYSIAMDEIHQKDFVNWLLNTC (bridge 15-19) [triple agonist of SEQ ID NO: 87] , please?
-- reply < 0.1%

-- ask # lookup: In vitro activity compared to native-type peptide (%), vs Glucagon of Y[Aib]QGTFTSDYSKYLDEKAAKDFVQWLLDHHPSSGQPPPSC (bridge 16-20) [triple agonist of SEQ ID NO: 77]
-- reply 12.2%
